tested on: Bacillus subtilis; assay: Antibacterial activity against Bacillus subtilis at 100 ug/ml after 24 hrs by agar well diffusion method; assay type: functional; conditions: read-out: DIZ
zone of inhibition at 100 µg/mL reference
Write the answer as a number in mm, unit excluded.

Below are worked cases with known answers.
Cc1cccc2nc(N/N=C/c3ccccc3)sc12; 13
Cc1cccc2nc(N/N=C/c3ccc(Br)cc3)sc12; 13
Cc1cccc2nc(N/N=C/c3ccc(Br)cc3Br)sc12; 27
Cc1cccc2nc(N/N=C/c3ccc(O)cc3Br)sc12; 15

With those in mind, consider the next compound.
## Task Which zone of inhibition at 100 µg/mL value belongs to O=C(N[C@H](CO)[C@H](O)c1ccc([N+](=O)[O-])cc1)C(Cl)Cl [CHLORAMPHENICOL] ?
## Result 34
